Reference source: patent US10047051B2

# System: CFTR ΔF508 mutant (Homo sapiens, UniProt P13569, DEL508-508)
# Sequence (P13569 with tags, fused parts or gaps DEL508-508): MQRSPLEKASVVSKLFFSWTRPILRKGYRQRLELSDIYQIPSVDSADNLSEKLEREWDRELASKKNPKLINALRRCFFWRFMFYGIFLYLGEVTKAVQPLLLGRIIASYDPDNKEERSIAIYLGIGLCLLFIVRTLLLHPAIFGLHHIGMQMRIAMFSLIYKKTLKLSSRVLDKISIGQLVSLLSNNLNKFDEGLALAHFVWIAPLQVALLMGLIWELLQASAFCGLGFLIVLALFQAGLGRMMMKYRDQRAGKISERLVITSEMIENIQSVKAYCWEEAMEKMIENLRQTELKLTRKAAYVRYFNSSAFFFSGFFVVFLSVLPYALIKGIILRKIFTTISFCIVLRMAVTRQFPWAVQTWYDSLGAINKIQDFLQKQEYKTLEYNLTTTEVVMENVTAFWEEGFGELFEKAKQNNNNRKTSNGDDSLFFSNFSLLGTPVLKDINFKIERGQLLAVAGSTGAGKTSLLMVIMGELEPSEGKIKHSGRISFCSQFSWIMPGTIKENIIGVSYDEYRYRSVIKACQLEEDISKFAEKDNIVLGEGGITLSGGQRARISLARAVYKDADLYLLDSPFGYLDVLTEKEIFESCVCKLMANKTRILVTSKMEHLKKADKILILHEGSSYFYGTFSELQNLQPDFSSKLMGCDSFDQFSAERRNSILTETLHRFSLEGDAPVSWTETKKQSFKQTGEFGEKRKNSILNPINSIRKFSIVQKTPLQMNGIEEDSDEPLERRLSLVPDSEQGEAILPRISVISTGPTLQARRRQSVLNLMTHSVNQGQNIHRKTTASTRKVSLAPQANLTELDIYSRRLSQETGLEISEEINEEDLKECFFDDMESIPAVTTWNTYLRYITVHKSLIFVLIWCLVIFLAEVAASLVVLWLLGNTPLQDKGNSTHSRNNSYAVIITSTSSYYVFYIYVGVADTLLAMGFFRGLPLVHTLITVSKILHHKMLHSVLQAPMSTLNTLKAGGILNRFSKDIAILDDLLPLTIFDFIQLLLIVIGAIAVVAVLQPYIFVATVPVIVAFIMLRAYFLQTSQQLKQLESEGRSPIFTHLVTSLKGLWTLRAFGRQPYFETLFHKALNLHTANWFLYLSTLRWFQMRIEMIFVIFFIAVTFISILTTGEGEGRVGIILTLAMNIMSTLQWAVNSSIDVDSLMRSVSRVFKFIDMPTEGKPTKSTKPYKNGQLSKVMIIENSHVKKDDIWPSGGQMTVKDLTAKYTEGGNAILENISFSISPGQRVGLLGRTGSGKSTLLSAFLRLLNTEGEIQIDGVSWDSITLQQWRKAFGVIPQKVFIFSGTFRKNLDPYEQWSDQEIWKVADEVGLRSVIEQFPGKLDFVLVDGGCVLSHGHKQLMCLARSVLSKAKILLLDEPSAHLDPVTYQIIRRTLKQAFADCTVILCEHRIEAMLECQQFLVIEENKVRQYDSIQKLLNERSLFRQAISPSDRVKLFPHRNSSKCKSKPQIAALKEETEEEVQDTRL
# Method Description: YFP-halide influx assay for the CFTR-ΔF508 mutation (CFBE41o- cells)
# Condition Label: forskolin 10.67 μM, from (1−F/F0) vs concentration plot
Assay Metric: EC50 (µM)

1 = COCCNC(=O)c1ncc(S(=O)(=O)c2ccc(C(F)(F)F)cc2)cc1N
2 = Nc1cc(S(=O)(=O)c2ccc(OC(F)(F)F)cc2)cnc1C(=O)N[C@@H]1CCCC[C@H]1O (racemic)
3 = CO[C@H]1CCC[C@@H]1NC(=O)c1ncc(S(=O)(=O)c2ccc(C(F)(F)F)cc2)cc1N
4 = Nc1cc(S(=O)(=O)c2ccc(OC(F)(F)F)cc2)cnc1C(=O)NCC1CC1
Q: Hi! Can you put these in order of EC50, lowest number first? Rank the items, then write their labels in that order.
Ans: 2, 1, 4, 3
(2: 0.0088 µM, 1: 0.0455 µM, 4: 0.0812 µM, 3: 0.135 µM)
